tested-on: T1, MBNL1 (GST-MBNL1 1-260) (UniProt Q9NR56 1-260)
T1 sequence: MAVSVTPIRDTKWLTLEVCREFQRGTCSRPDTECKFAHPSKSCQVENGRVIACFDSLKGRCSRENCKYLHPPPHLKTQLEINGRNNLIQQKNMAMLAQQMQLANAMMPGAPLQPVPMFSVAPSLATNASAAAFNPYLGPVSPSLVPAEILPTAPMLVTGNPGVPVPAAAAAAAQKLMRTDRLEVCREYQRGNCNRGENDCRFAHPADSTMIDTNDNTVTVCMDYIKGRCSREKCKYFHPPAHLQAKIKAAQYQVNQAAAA
experiment: EMSA
quantity-name: Kd (nM)
Quick note: give the figure in nM, leave out the unit.

[
  {
    "binder": "CCUGCUUCGCUUCUGCAUUGUUCGGCCGGUUG (ssRNA) [A04 32mer]",
    "unit-name": "nM",
    "reported-result": 180
  }
]

q: State its Kd for this binder: CCUUUAUUGUGCAUGCUUAGUCUUGUUAUUCGUUGUAUAU (ssRNA) [MBNL1 site #2]
a: 45

q: Read off the recorded Kd for UGCCACUGCUGCUGCUGCGCUUCCAGUCAGGGUGGGCCGC (ssRNA) [ATP2A1]
a: 15

q: Please indicate Kd recorded for GCCGAGGAGGUGGUGUGAUUGCUUUAGCGCCGUCAUUUUC (ssRNA) [GRIN1]
a: 280

q: Tell me measured Kd for GCGGCGGGCAGCUGUGCUGGAGAGCAGAUGCUUCACCAAU (ssRNA) [INSR] please.
a: 120

q: Query Kd for CCUGUCUCGCUUUUCCCCUCCGCUGCGGCCAC (ssRNA) [TNNT2 32mer]
a: 20

q: # return recorded Kd for input TNNT2 81mer template (ssRNA) RNA: GGGAAUGGAUCCACAUCUACGAAUUCCCUGUCUCGCUUUUCCCCUCCGCUGCGGCCACAAGACUCGAUACGUGACGAACCU
a: 30

q: Give a short answer stating reported Kd for UGUUCCUCGCUUUUCGCCUCCGCUUCCGCCGC (ssRNA) [B07 32mer] .
a: 0.66
